These data points were gathered from PubChem BioAssay.

Target: NADPH oxidase 4 (Homo sapiens) (UniProt Q9NPH5)
Sequence (Q9NPH5 whole entry, looked up): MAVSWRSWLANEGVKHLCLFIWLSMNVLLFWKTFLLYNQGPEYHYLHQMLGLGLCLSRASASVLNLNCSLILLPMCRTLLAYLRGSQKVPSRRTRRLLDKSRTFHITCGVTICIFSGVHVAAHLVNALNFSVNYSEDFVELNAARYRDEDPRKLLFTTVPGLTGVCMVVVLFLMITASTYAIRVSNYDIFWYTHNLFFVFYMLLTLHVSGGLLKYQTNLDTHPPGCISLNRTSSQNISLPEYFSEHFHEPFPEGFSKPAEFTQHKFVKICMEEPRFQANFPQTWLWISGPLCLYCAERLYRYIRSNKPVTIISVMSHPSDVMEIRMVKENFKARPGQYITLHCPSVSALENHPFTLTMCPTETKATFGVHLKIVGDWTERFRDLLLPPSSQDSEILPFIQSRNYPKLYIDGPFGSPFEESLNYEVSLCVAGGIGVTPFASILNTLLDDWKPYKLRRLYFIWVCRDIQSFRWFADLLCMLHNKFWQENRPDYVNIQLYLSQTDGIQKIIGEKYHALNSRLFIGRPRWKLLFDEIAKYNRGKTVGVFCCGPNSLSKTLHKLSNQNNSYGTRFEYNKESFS
Assay: NOX4-dependent H2O2 signal modulators, primary screen, NOX inhibitor project, cell-based, HEK293-NOX4, tetracycline-induced, Amplex Red fluorescence (AID 1160)
Details: 45 min, higher = more signal, called active from +8 up or from −8 down
z-score: recorded values
metric: z-score

compound=COCCOC(=O)N1C(=O)[C@@]2(c3cc(C#CCNC(N)=O)ccc31)[C@H](C(=O)N1CCc3cc(OC)c(OC)cc3C1)[C@H]1C(=O)O[C@H](c3ccccc3)[C@H](c3ccccc3)N1[C@@H]2c1ccccc1OCCO measured=1.09
compound=C=C(COC)C(=O)CC[C@@H](OC(=O)c1cccnc1)c1ccc(OCCO)cc1 measured=0.211
compound=CCOC(=O)C[C@H]1[C@H](OC(=O)Cc2ccc3c(c2)OCO3)[C@@H](NC(=O)Cc2ccc(OC)cc2)c2cc(OCCCO)ccc2N1C(=O)c1ccc2ccccc2n1 measured=1.04
compound="OCC1CC(c2ccccc2)=NO1 (configuration not stated)" measured=-0.137
compound="COC1OC[C@]2(C)[C@H]3C4=C(CN2C(=O)OC(C)(C)C)[C@H](C)C(CO)C(CO)C4CC[C@@H]13 (some centres not stated)" measured=-0.651
compound=COC(=O)C(CC#Cc1ccc2c(c1)[C@]1(C(=O)N2)[C@H](C(=O)N2CCN(c3ncccn3)CC2)[C@H]2C(=O)O[C@H](c3ccccc3)[C@H](c3ccccc3)N2[C@@H]1c1ccc(OCCO)cc1)C(=O)OC measured=0.504
compound="CCCCN1CC=CC23O[C@@H]4/C=C\\CCC(C)OC(=O)C4[C@H]2C(=O)N(C(CO)C(C)C)[C@@H]3C1=O (some centres not stated)" measured=-0.506

====

Molecular target: Focal adhesion kinase 1 (Homo sapiens) (UniProt Q05397)
Sequence (Q05397 whole entry, looked up): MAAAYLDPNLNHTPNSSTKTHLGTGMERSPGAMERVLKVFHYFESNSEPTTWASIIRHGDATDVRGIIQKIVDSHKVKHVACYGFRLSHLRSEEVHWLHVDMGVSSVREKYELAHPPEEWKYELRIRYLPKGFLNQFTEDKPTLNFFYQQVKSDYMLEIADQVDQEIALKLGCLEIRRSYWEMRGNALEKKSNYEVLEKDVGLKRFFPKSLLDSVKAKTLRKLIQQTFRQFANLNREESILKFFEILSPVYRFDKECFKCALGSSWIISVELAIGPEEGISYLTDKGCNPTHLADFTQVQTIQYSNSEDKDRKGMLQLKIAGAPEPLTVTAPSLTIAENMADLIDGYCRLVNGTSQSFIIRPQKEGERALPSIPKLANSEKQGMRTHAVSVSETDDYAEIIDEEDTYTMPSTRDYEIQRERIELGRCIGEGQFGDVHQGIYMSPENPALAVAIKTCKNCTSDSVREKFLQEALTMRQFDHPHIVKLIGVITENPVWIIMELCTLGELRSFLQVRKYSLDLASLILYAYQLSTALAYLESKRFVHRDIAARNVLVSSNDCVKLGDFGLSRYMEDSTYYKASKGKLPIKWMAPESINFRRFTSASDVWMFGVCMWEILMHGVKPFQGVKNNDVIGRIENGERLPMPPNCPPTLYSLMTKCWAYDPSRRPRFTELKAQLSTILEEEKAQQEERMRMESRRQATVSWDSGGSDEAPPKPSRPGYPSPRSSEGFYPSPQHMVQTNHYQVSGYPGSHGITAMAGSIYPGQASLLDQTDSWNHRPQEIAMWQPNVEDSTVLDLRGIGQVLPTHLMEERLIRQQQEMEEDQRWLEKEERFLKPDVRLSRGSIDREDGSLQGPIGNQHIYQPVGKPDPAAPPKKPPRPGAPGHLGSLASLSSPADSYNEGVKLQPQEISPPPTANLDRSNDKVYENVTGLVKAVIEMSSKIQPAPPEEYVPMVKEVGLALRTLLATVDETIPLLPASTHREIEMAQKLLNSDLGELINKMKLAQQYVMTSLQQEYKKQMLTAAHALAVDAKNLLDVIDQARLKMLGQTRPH
Assay: small-molecule microarray binders of FAK, primary screen, biochemical, 635/667 nm fluorescence, BSA, DTT (AID 1130);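 further: composite of spot emission at 667 nm and signal to noise over triplicate slides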
Details: PTK2 binding, 635 nm fluorescence, higher = more signal
Class boundaries, taken from values of composite z-score, are as follows: low band (below -0.04), middle band (-0.04 to below 0.3), high band (0.3 or more)

compound=O=C1O[C@@H](c2ccccc2)[C@@H](c2ccccc2)N2[C@@H](c3ccc(O)cc3)[C@]3(C(=O)Nc4ccc(C#CC5=CCCCC5)cc43)[C@@H](C(=O)NC[C@H](O)c3ccccc3)[C@H]12 qualitativelabel="middle band"
compound=COCCOC(=O)N1C(=O)[C@@]2(c3cc(C#CCCO)ccc31)[C@H](C(=O)Nc1nc3ccccc3s1)[C@H]1C(=O)O[C@H](c3ccccc3)[C@H](c3ccccc3)N1[C@@H]2c1ccccc1OCCO qualitativelabel="high band"
compound=CCOC(=O)C[C@H]1[C@H](OC(=O)c2ccccc2-c2ccccc2)[C@@H](NC(=O)c2ccc(-c3ccccc3)cc2)c2cc(OCCCO)ccc2N1C(=O)c1ccc2ccccc2n1 qualitativelabel="middle band"
compound=CCCNC(=O)[C@@H]1c2ccccc2C(=O)N(C(C)C)[C@H]1c1ccc(CO)cc1 qualitativelabel="low band"
compound="CN1C(=O)C2C=CC(C(O)COCc3ccccc3)N(N(c3ccccc3)c3ccccc3)C2C1=O (centres undefined)" qualitativelabel="high band"
compound=CN(C)CCCNC(=O)[C@@]1(c2ccc([N+](=O)[O-])cc2)CC(=O)N(CC23CC4CC(CC(C4)C2)C3)[C@@H]1c1ccc(CO)cc1I qualitativelabel="middle band"
compound=COc1cc2c(cc1OC)CN(C(=O)[C@@H]1[C@H]3C(=O)O[C@H](c4ccccc4)[C@H](c4ccccc4)N3[C@H](c3ccc(OCCO)cc3)[C@@]13C(=O)Nc1ccc(C#CC4(O)CCCCCC4)cc13)CC2 qualitativelabel="low band"
compound="CC(C)(C)N1CC=CC23O[C@@H]4C=CCCOC(=O)C4[C@H]2C(=O)N(CCO)[C@@H]3C1=O (some centres undefined)" qualitativelabel="low band"
compound=COCCOC(=O)N1C(=O)[C@@]2(c3cc(C#Cc4ccc(OC)cc4)ccc31)[C@H](C(=O)Nc1nc3ccccc3s1)[C@H]1C(=O)O[C@H](c3ccccc3)[C@H](c3ccccc3)N1[C@@H]2c1ccc(O)cc1 qualitativelabel="middle band"
compound=Cc1ccc(S[C@]2(C(=O)O)CC(=O)N(Cc3ccccc3Cl)[C@@H]2c2ccc(CO)cc2I)cc1 qualitativelabel="middle band"
compound=COc1cccc(/C=C/C=O)c1 qualitativelabel="middle band"
compound="C=CCC(OC(C)=O)[C@@H]1[C@@H](N(Cc2cccc3ccccc23)C(=O)Cc2ccc(OC)cc2)c2cc(OCCCO)ccc2N1C(=O)c1ccc2ccccc2n1 (some centres undefined)" qualitativelabel="high band"
compound=Cc1ccc(S[C@]2(C(=O)NCC(F)(F)F)CC(=O)N(Cc3ccccc3)[C@@H]2c2ccc(CO)cc2I)cc1 qualitativelabel="low band"
compound=C[C@]1(C(=O)NC2CC2)c2ccccc2C(=O)N(Cc2ccccc2)[C@H]1c1ccc(CO)cc1 qualitativelabel="high band"
